Reference source: ChEMBL document CHEMBL1132138

Catalogue of Leishmanicidal activity readings, one per entry.
Test system: Leishmania amazonensis
Assay: In vitro evaluation of leishmanicidal activity against Leishmania amazonensis (PH8) at a dose 100 ug/mL; ++ = 80- 90% lysis
Type: functional, organism-based

What value of Leishmanicidal activity has been recorded for this entry: COc1ccc(CCc2ccc3c(c2)OCO3)cc1O 80- 90% lysis

What value of Leishmanicidal activity has been recorded for this entry: COc1cc(CC(=O)c2ccoc2)cc(OC)c1OC 80- 90% lysis

What value of Leishmanicidal activity has been recorded for this entry: COc1ccc(CCc2ccco2)cc1O 80- 90% lysis

What value of Leishmanicidal activity has been recorded for this entry: COc1ccc(CC(=O)c2ccco2)cc1O 80- 90% lysis

Further cases:
What value of Leishmanicidal activity has been recorded for this entry: COc1ccc2[nH]c(-c3ccc4ccccc4c3)c(-c3cc(OC)c(OC)c(OC)c3)c2c1 80- 90% lysis

What value of Leishmanicidal activity has been recorded for this entry: COc1cc(CC(O)c2ccco2)cc(OC)c1OC (stereo unspecified) 80- 90% lysis

* * *

Test system: Leishmania amazonensis
Assay: In vitro evaluation of leishmanicidal activity against Leishmania amazonensis (PH8) at a dose 25 ug/mL; ++ = 80- 90% lysis
Assay type: functional, organism-based
Catalogue of Leishmanicidal activity readings, one per entry.

Consider the worked cases shown below.
What value of Leishmanicidal activity has been recorded for this entry: COc1cc(CC(=O)c2ccc3c(c2)OCO3)cc(OC)c1OC 80- 90% lysis

What value of Leishmanicidal activity has been recorded for this entry: COc1cc(CC(O)c2ccc3c(c2)OCO3)cc(OC)c1OC (centres undefined) 80- 90% lysis

What value of Leishmanicidal activity has been recorded for this entry: COc1cc(CCc2ccco2)cc(OC)c1OC 80- 90% lysis

Kindly review the next compound as well.
What value of Leishmanicidal activity has been recorded for this entry: COc1cc(CCc2cn(C)c3ccccc23)cc(OC)c1OC 80- 90% lysis
